Quick reference for half-life among some compounds
run.description: Half life in CD1 mouse lung at 40 mg/kg, po administered as single dose
Assay type: ADME, organism-based
Design: dose 40 mg/kg, route oral

| line.notation | half-life / h |
| --- | --- |
| O=[N+]([O-])c1cn2c(n1)OC[C@@H](OCc1ccc(-c3ccc(OC(F)(F)F)c(Cl)c3)nc1)C2 | 14 |
| O=[N+]([O-])c1cn2c(n1)OC[C@@H](OCc1ccc(-c3ccc(OC(F)(F)F)cc3)cc1)C2 | 13 |
| O=[N+]([O-])c1cn2c(n1)OC[C@@H](OCc1ccc(-c3ccc(OC(F)(F)F)cc3)cn1)C2 | 8.2 |
| O=[N+]([O-])c1cn2c(n1)OC[C@@H](OCc1ccc(-c3ccc(F)cc3)nc1)C2 | 2.8 |

====

run.description: Cmax in Sprague-Dawley rat at 1 mg/kg, iv administered as single dose
Assay type: ADME, organism-based
Set-up: dose 1 mg/kg, route intravenous
recorded.conditions: in vivo
measured.metric: Cmax (ng/mL)

| line.notation | measured.metric | quantitative.readout |
| --- | --- | --- |
| O=[N+]([O-])c1cn2c(n1)OC[C@@H](OCc1ccc(-c3ccc(OC(F)(F)F)c(F)c3)nc1)C2 | Cmax | 530 |

====

run.description: AUC (0-infinity) in CD1 mouse lung at 40 mg/kg, po administered as single dose
Assay type: ADME, organism-based
Set-up: time infinity, dose 40 mg/kg, route oral
Quick reference for AUC(0-inf) among some molecules

| molecule | relational.operator | AUC(0-inf) [µg·h/mL] |
| --- | --- | --- |
| O=[N+]([O-])c1cn2c(n1)OC[C@@H](OCc1ccc(-c3ccc(OC(F)(F)F)c(F)c3)nc1)C2 | = | 251 |
| O=[N+]([O-])c1cn2c(n1)OC[C@@H](OCc1ccc(-c3ccc(C(F)(F)F)cn3)cc1)C2 | = | 67 |
| O=[N+]([O-])c1cn2c(n1)OC[C@@H](OCc1cnc(-c3ccc(OC(F)(F)F)cc3)cn1)C2 | > | 324 |
| O=[N+]([O-])c1cn2c(n1)OC[C@@H](OCc1ccc(-c3ccc(OC(F)(F)F)c(Cl)c3)nc1)C2 | = | 284 |
| O=[N+]([O-])c1cn2c(n1)OC[C@@H](OCc1cnc(-c3ccc(OC(F)(F)F)cc3)nc1)C2 | = | 131 |
| O=[N+]([O-])c1cn2c(n1)OC[C@@H](OCc1ccc(-c3ccc(OC(F)(F)F)cc3)nc1)C2 [TBA-354] | = | 81 |
| O=[N+]([O-])c1cn2c(n1)OC[C@@H](OCc1ccc(-c3ccc(OC(F)(F)F)cc3)nn1)C2 | = | 94 |
| O=[N+]([O-])c1cn2c(n1)OC[C@@H](OCc1ccc(-c3ccc(OC(F)(F)F)cc3)cc1)C2 | = | 218 |
| O=[N+]([O-])c1cn2c(n1)OC[C@@H](OCc1ccc(-c3ccc(OC(F)(F)F)c(F)c3)cn1)C2 | = | 155 |
| O=[N+]([O-])c1cn2c(n1)OC[C@@H](OCc1ccc(-c3ccc(C(F)(F)F)nc3)cc1)C2 | = | 414 |
| O=[N+]([O-])c1cn2c(n1)OC[C@@H](OCc1ccc(-c3ccc(F)cc3)nc1)C2 | = | 136 |
| O=[N+]([O-])c1cn2c(n1)OC[C@@H](OCc1ccc(-c3ccc(OC(F)(F)F)cc3)cn1)C2 | = | 427 |

====

run.description: AUClast in Sprague-Dawley rat at 20 mg/kg, po administered as single dose
Assay type: ADME, organism-based
Design: time 0 - last, dose 20 mg/kg, route oral
recorded.conditions: plasma

| molecule | unit.text | AUC(0-t) |
| --- | --- | --- |
| O=[N+]([O-])c1cn2c(n1)OC[C@@H](OCc1ccc(-c3ccc(OC(F)(F)F)c(F)c3)nc1)C2 | ng·h/mL | 129000 |
| O=[N+]([O-])c1cn2c(n1)OC[C@@H](OCc1ccc(-c3ccc(OC(F)(F)F)cc3)nc1)C2 [TBA-354] | ng·h/mL | 30100 |
| O=[N+]([O-])c1cn2c(n1)OC[C@@H](OCc1cnc(-c3ccc(OC(F)(F)F)cc3)cn1)C2 | ng·h/mL | 29400 |
| O=[N+]([O-])c1cn2c(n1)OC[C@@H](OCc1ccc(-c3ccc(OC(F)(F)F)cc3)cn1)C2 | ng·h/mL | 66700 |

====

run.description: physchem
recorded.conditions: water, pH 1
Description: Solubility of the compound in water at pH 1.0 by HPLC
Category key, based on recorded solubility: LOW: < 5 µg/mL; MID: ≥ 5 µg/mL and < 70 µg/mL; HIGH: ≥ 70 µg/mL

| line.notation | label.value |
| --- | --- |
| O=[N+]([O-])c1cn2c(n1)OC[C@@H](OCc1cncc(-c3ccc(F)cc3)c1)C2 | HIGH |
| O=[N+]([O-])c1cn2c(n1)OC[C@@H](OCc1ccc(-c3ccc(C(F)(F)F)nc3)cc1)C2 | MID |
| O=[N+]([O-])c1cn2c(n1)OC[C@@H](OCc1cnc(-c3ccc(OC(F)(F)F)cc3)nc1)C2 | LOW |
| O=[N+]([O-])c1cn2c(n1)OC[C@@H](OCc1ccc(-c3ccc(OC(F)(F)F)cc3)cc1)C2 | LOW |
| O=[N+]([O-])c1cn2c(n1)OC[C@@H](OCc1ccc(-c3ccc(OC(F)(F)F)c(F)c3)cn1)C2 | HIGH |
| O=[N+]([O-])c1cn2c(n1)OC[C@@H](OCc1ccc(-c3ccnc(F)c3)cc1)C2 | MID |
| O=[N+]([O-])c1cn2c(n1)OC[C@@H](OCc1ccc(-c3ccc(F)cc3)nc1)C2 | HIGH |
| O=[N+]([O-])c1cn2c(n1)OC[C@@H](OCc1cnc(-c3ccc(OC(F)(F)F)cc3)cn1)C2 | LOW |
| O=[N+]([O-])c1cn2c(n1)OC[C@@H](OCc1ccc(-c3ccc(F)cn3)cc1)C2 | HIGH |
| O=[N+]([O-])c1cn2c(n1)OC[C@@H](OCc1ccc(-c3ccc(F)nc3)cc1)C2 | MID |

====

run.description: physchem
recorded.conditions: water, pH 7
Description: Solubility of the compound in water at pH 7.0 by HPLC

| line.notation | unit.text | solubility |
| --- | --- | --- |
| O=[N+]([O-])c1cn2c(n1)OC[C@@H](OCc1ccc(-c3ccnc(F)c3)cn1)C2 | µg/mL | 42 |
| O=[N+]([O-])c1cn2c(n1)OC[C@@H](OCc1ncc(-c3ccc(C(F)(F)F)cc3)cn1)C2 | µg/mL | 2.7 |
| COc1ccc(-c2ccc(CO[C@@H]3COc4nc([N+](=O)[O-])cn4C3)nn2)cc1F | µg/mL | 6.8 |
| O=[N+]([O-])c1cn2c(n1)OC[C@@H](OCc1ccc(-c3ccc(C(F)(F)F)nc3)nn1)C2 | µg/mL | 12 |
| N#Cc1ccc(-c2ccnc(CO[C@@H]3COc4nc([N+](=O)[O-])cn4C3)c2)cc1 | µg/mL | 19 |
| O=[N+]([O-])c1cn2c(n1)OC[C@@H](OCc1ccccc1-c1ccc(OCc3ccccc3)nc1)C2 | µg/mL | 1.2 |
| O=[N+]([O-])c1cn2c(n1)OC[C@@H](OCc1ccc(-c3ccncc3F)cn1)C2 | µg/mL | 700 |
| O=[N+]([O-])c1cn2c(n1)OC[C@@H](OCc1ccc(-c3ccc(OC(F)(F)F)c(F)c3)nc1)C2 | µg/mL | 3 |
| O=[N+]([O-])c1cn2c(n1)OC[C@@H](OCc1cnc(-c3ccc(C(F)(F)F)cc3)cn1)C2 | µg/mL | 0.84 |
| O=[N+]([O-])c1cn2c(n1)OC[C@@H](OCc1cnc(-c3ccc(OC(F)F)cc3)cn1)C2 | µg/mL | 5 |

====

run.description: physchem
recorded.conditions: water, pH 7
measured.metric: solubility (µg/mL)

| line.notation | unit.text | quantitative.readout |
| --- | --- | --- |
| N#Cc1ccc(-c2ccc(CO[C@@H]3COc4nc([N+](=O)[O-])cn4C3)nn2)cc1 | µg/mL | 22 |
| O=[N+]([O-])c1cn2c(n1)OC[C@@H](OCc1ccc(-c3ccc(F)nc3)nc1)C2 | µg/mL | 51 |
| O=[N+]([O-])c1cn2c(n1)OC[C@@H](OCc1ccc(-c3cccnc3)cc1)C2 | µg/mL | 29 |

====

Quick reference for solubility among some molecules
run.description: physchem
recorded.conditions: water, pH 7

| line.notation | solubility [µg/mL] |
| --- | --- |
| COc1ccc(-c2cccc(CO[C@@H]3COc4nc([N+](=O)[O-])cn4C3)n2)cn1 | 14 |
| O=[N+]([O-])c1cn2c(n1)OC[C@@H](OCc1ccc(-c3ncc(C(F)(F)F)cc3Cl)cc1)C2 | 3.3 |
| O=[N+]([O-])c1cn2c(n1)OC[C@@H](OCc1cnc(-c3ccc(C(F)(F)F)nc3)cn1)C2 | 27 |
| COc1ccc(-c2ccc(CO[C@@H]3COc4nc([N+](=O)[O-])cn4C3)cc2)cn1 | 4.4 |
| COc1ccc(-c2cccc(CO[C@@H]3COc4nc([N+](=O)[O-])cn4C3)n2)cc1F | 10 |
| O=[N+]([O-])c1cn2c(n1)OC[C@@H](OCc1ccnc(-c3ccc(F)cc3)c1)C2 | 31 |
| O=[N+]([O-])c1cn2c(n1)OC[C@@H](OCc1cnc(-c3ccc(F)cc3)cn1)C2 | 8.9 |
| O=[N+]([O-])c1cn2c(n1)OC[C@@H](OCc1ccccc1-c1ccc(F)nc1)C2 | 35 |
| O=[N+]([O-])c1cn2c(n1)OC[C@@H](OCc1ccc(-c3ccc(C(F)(F)F)cn3)cc1)C2 | 0.2 |
| N#Cc1ccc(-c2cncc(CO[C@@H]3COc4nc([N+](=O)[O-])cn4C3)c2)cc1 | 29 |
| O=[N+]([O-])c1cn2c(n1)OC[C@@H](OCc1ncc(-c3ccc(OC(F)F)cc3)cn1)C2 | 7.8 |
| O=[N+]([O-])c1cn2c(n1)OC[C@@H](OCc1ncc(-c3ccc(C(F)(F)F)nc3)cn1)C2 | 85 |
| O=[N+]([O-])c1cn2c(n1)OC[C@@H](OCc1cccc(-c3ccc(OCc4ccccc4)nc3)c1)C2 | 0.15 |
| O=[N+]([O-])c1cn2c(n1)OC[C@@H](OCc1ccc(-c3ccc(OC(F)F)cc3)nn1)C2 | 1.3 |
| COc1ccc(-c2ccccc2CO[C@@H]2COc3nc([N+](=O)[O-])cn3C2)cn1 | 48 |
| COc1ccc(-c2cccc(CO[C@@H]3COc4nc([N+](=O)[O-])cn4C3)c2)cn1 | 18 |
| O=[N+]([O-])c1cn2c(n1)OC[C@@H](OCc1ccc(-c3ccc(F)nc3)cc1)C2 | 8 |
| O=[N+]([O-])c1cn2c(n1)OC[C@@H](OCc1ccc(-c3ccc(Cl)c(OC(F)(F)F)c3)nc1)C2 | 0.22 |
| COc1ccc(-c2ccnc(CO[C@@H]3COc4nc([N+](=O)[O-])cn4C3)c2)cc1F | 25 |

Cited source for all entries: ChEMBL document CHEMBL1629541
